Where do the numbers come from? From PubChem BioAssay AID248.

Test system: L1210 leukemia ip in BDF1 mice, survival T/C
experiment_description: NCI In Vivo Anticancer Drug Screen. Data for tumor model L1210 Leukemia (intraperitoneal) in B6D2F1 (BDF1) mice
test_conditions: endpoint: mean survival time; dose: 400.0 mg/kg/injection; schedule: Q01DX001 (ip); vehicle: Klucel (hydroxypropylcellulose) (HPC); higher = longer survival
Toxic doses and inconclusive results are not listed.
I'd be grateful if you could share measured T/C for these entries.

Notebook: Nc1c(Cl)cc2c(c1Br)C(=O)c1ccccc1C2=O , T/C read as 90 % of control

Notebook: CCOC(=O)Cn1c(=O)c2ccccc2c2cc(Br)ccc21 , T/C read as 92 % of control

Notebook: CSc1ccc(OC(=O)Nc2cccc(F)c2)cc1 , T/C read as 104 % of control

Notebook: O=C(Cc1ccccc1)Nc1cccnc1 , T/C read as 92 % of control

Notebook: Cc1ccc(S(=O)(=O)C=C(c2ccccc2)c2ccccc2)cc1 , T/C read as 104 % of control

Notebook: NC(=O)Cc1cccc(=O)[nH]1 , T/C read as 95 % of control

Notebook: CC1(C)CCO/C(=C\C(=O)N2Cc3cc4ccccc4nc3C2)N1 , T/C read as 90 % of control

Notebook: CCCCCCCC/C=C\CCCCCCCC(=O)OCCCCC , T/C read as 103 % of control

Notebook: COC(=O)C12c3ccccc3C(c3ccccc31)c1c(N=O)ccc(NO)c12 , T/C read as 89 % of control

Notebook: CCOC(=O)c1cnc(C)nc1Nc1c(C)cccc1C , T/C read as 100 % of control

Notebook: CNC(=O)NCC1OC(n2cnc3c(N)ncnc32)C(O)C1O (stereo unspecified) , T/C read as 95 % of control

Notebook: CC12C3C(=O)NC45CCCC41C5(c1ccccc1)C32c1ccccc1 (stereo unspecified) , T/C read as 94 % of control

Notebook: CNc1cccc(C(=O)O)c1 , T/C read as 98 % of control

Notebook: Cc1ccc(S(=O)(=O)NC(Cc2ccccc2)C(=O)Nc2cccnc2)cc1 (stereo unspecified) , T/C read as 88 % of control

Notebook: CC(C)CCCC(C)CCC1=C(O)c2ccccc2C(=O)C1=O (stereo unspecified) , T/C read as 100 % of control

Notebook: CCOc1ccc(-n2c(O)c(N=Nc3ccc(Cl)cc3)c(=O)n(-c3ccccc3)c2=S)cc1 , T/C read as 94 % of control

###

Test system: L1210 leukemia ip in BDF1 mice, survival T/C
experiment_description: NCI In Vivo Anticancer Drug Screen. Data for tumor model L1210 Leukemia (intraperitoneal) in B6D2F1 (BDF1) mice
test_conditions: endpoint: mean survival time; dose: 100.0 mg/kg/injection; schedule: Q01DX001 (ip); vehicle: carboxymethylcellulose (CMC); higher = longer survival
Toxic doses and inconclusive results are not listed. Peptide text beside a SMILES is read from it.
I'd be grateful if you could share measured T/C for these entries.

# Cc1cc(NS(=O)(=O)c2ccc(N=Nc3c(N)n(C)c(=O)n(C)c3=O)cc2)nc(C)n1 with L1210 leukemia ip in BDF1 mice, survival T/C: T/C is 89 % of control

# O=C1C(Br)=C(C2CCCCC2)C(=O)c2ccccc21 with L1210 leukemia ip in BDF1 mice, survival T/C: T/C is 116 % of control

# CSc1ncc(CO)c(N)n1 with L1210 leukemia ip in BDF1 mice, survival T/C: T/C is 98 % of control

# COc1ccc2c(c1OC)CN(C)CCc1cc3c(cc1C(=O)C2)OCO3 with L1210 leukemia ip in BDF1 mice, survival T/C: T/C is 96 % of control

# CN(C)C1c2cc(Br)ccc2-c2ccc([N+](=O)[O-])cc21 (centres undefined) with L1210 leukemia ip in BDF1 mice, survival T/C: T/C is 94 % of control

# O=C(O)c1cccc([N+](=O)[O-])c1[N+](=O)[O-] with L1210 leukemia ip in BDF1 mice, survival T/C: T/C is 95 % of control

# Cc1c(C2CCC(=O)C2)c2ccccc2n1C (centres undefined) with L1210 leukemia ip in BDF1 mice, survival T/C: T/C is 93 % of control

# CC(=O)OCCC/C(=C\c1ccc(N(C)C)cc1)[N+](=O)[O-] with L1210 leukemia ip in BDF1 mice, survival T/C: T/C is 91 % of control

# C#CC1(O)CC[C@H]2[C@@H]3CCC4=CCCC[C@@H]4[C@H]3CC[C@@]21C (some centres undefined) with L1210 leukemia ip in BDF1 mice, survival T/C: T/C is 103 % of control

# CC(CO)(CO)N=Cc1ccc(N(CCCl)CCCl)cc1 with L1210 leukemia ip in BDF1 mice, survival T/C: T/C is 106 % of control

# O=C(Nc1cc([N+](=O)[O-])ccc1O)Nc1cc(C(F)(F)F)ccc1Cl with L1210 leukemia ip in BDF1 mice, survival T/C: T/C is 90 % of control

# CCCCCCCC(=O)N(CCCCC)CCCCC with L1210 leukemia ip in BDF1 mice, survival T/C: T/C is 99 % of control

# Nc1nc(N)c2[nH]cnc2n1 with L1210 leukemia ip in BDF1 mice, survival T/C: T/C is 97 % of control

# O/N=C1\c2cc(Cl)ccc2-c2c(Cl)cc(Cl)cc21 with L1210 leukemia ip in BDF1 mice, survival T/C: T/C is 115 % of control

# COC(C)(C)CN(CCCNC(=S)Nc1ccccc1)C(=S)Nc1ccccc1 with L1210 leukemia ip in BDF1 mice, survival T/C: T/C is 97 % of control

# O=C(Nc1ccccc1)Nc1cccc(C(F)(F)F)c1 with L1210 leukemia ip in BDF1 mice, survival T/C: T/C is 102 % of control

# O=[N+]([O-])c1cccc(/C=N/Nc2nnc(N/N=C/c3cccc([N+](=O)[O-])c3)c3ccccc23)c1 with L1210 leukemia ip in BDF1 mice, survival T/C: T/C is 98 % of control

# O=C1CC2CCCC(CCO)(C2)N1 (centres undefined) with L1210 leukemia ip in BDF1 mice, survival T/C: T/C is 91 % of control

# CCCCC(SC(CC)(C(N)=O)c1ccccc1)C(=O)O (centres undefined) with L1210 leukemia ip in BDF1 mice, survival T/C: T/C is 90 % of control

# CC(NC(=O)C(CCC(=O)O)NC(=O)C(N)Cc1c[nH]c2ccccc12)C(=O)NCC(=O)NC(Cc1c[nH]c2ccccc12)C(=O)NC(CCC(=O)O)C(=O)NC(C)C(=O)NCC(=O)NCC(=O)O (centres undefined) (H-WEAGWEAGG-OH; configuration not given here) with L1210 leukemia ip in BDF1 mice, survival T/C: T/C is 98 % of control

# OCC1OC(Oc2cc(O)cc3[o+]c(-c4cc(O)c(O)c(O)c4)c(OC4(CO)OC(CO)C(O)C4O)cc23)C(O)C(O)C1O (centres undefined) with L1210 leukemia ip in BDF1 mice, survival T/C: T/C is 95 % of control

# ClC(=Nc1ccccc1)c1cc(Cl)ccn1 with L1210 leukemia ip in BDF1 mice, survival T/C: T/C is 92 % of control

# Cc1c(Cl)ccc2c(C(=O)O)cc(-c3ccc(Cl)cc3)nc12 with L1210 leukemia ip in BDF1 mice, survival T/C: T/C is 100 % of control

# CCOC(=O)CCCN(c1ccccc1C(=O)OC)S(=O)(=O)c1ccc(C)cc1 with L1210 leukemia ip in BDF1 mice, survival T/C: T/C is 97 % of control

###

Tested on: L1210 leukemia ip in BDF1 mice, survival T/C
experiment_description: NCI In Vivo Anticancer Drug Screen. Data for tumor model L1210 Leukemia (intraperitoneal) in B6D2F1 (BDF1) mice
test_conditions: endpoint: mean survival time; dose: 200.0 mg/kg/injection; schedule: Q04DX003 (ip); vehicle: carboxymethylcellulose (CMC); higher = longer survival
Inconclusive results and toxic doses are left out.
I'd be grateful if you could share measured T/C for these entries.

Notebook: O=C(O)/C=C/c1cnccn1 , T/C read as 93 % of control

Notebook: NNC(=O)CNc1cc(Cl)cc(Cl)c1 , T/C read as 97 % of control

Notebook: CCC1CC2c3cc(OC)c(OC)cc3CCN2CC1(O)Cc1ccncc1 (centres undefined) , T/C read as 104 % of control

Notebook: O=C(/C=C/c1ccccc1)NC(=S)NC1CCCCC1 , T/C read as 96 % of control

###

Tested on: L1210 leukemia ip in BDF1 mice, survival T/C
experiment_description: NCI In Vivo Anticancer Drug Screen. Data for tumor model L1210 Leukemia (intraperitoneal) in B6D2F1 (BDF1) mice
test_conditions: endpoint: mean survival time; dose: 50.0 mg/kg/injection; schedule: Q04DX003 (ip); vehicle: Klucel (hydroxypropylcellulose) (HPC); higher = longer survival
Toxic doses and inconclusive results are not listed.
measured_quantity: T/C

Notebook: O=C(O)CCSSc1ccc([N+](=O)[O-])cc1[N+](=O)[O-] , T/C read as 105 % of control

Notebook: OC(CNCCc1ccccc1)COc1cccc2ccccc12 (stereo not given) , T/C read as 95 % of control

Notebook: O=Ic1ccccc1 , T/C read as 93 % of control

Notebook: CN(NC(=O)OCc1ccccc1)C(=O)OCc1ccccc1 , T/C read as 112 % of control

Notebook: O=C(O)c1cccc([N+](=O)[O-])c1[N+](=O)[O-] , T/C read as 94 % of control

Notebook: CC(c1ccccc1)n1ccnc1CO (stereo not given) , T/C read as 98 % of control

Notebook: CC(C)(Cc1ccc(F)cc1)NCc1ccccc1 , T/C read as 103 % of control

Notebook: O=[N+]([O-])c1ccc(C=C2C=c3ccccc3=C2)cc1 , T/C read as 97 % of control

Notebook: CNc1c(C)cccc1C , T/C read as 105 % of control

Notebook: Cc1cccc(CN2CCN(C(c3ccccc3)c3ccc(Cl)cc3)CC2)c1 (stereo not given) , T/C read as 110 % of control

Notebook: O=C(O)C(Sc1ccc(Cl)cc1)Sc1ccc(Cl)cc1 , T/C read as 103 % of control

Notebook: N#CCCCOc1ccc(Cl)cc1 , T/C read as 104 % of control

Notebook: CC1(C)N=C(N)N=C(N)N1c1cc(Cl)c(Cl)cc1Cl , T/C read as 102 % of control

Notebook: COC(=O)C12c3ccccc3C(c3ccccc31)c1c(N=O)ccc(NO)c12 , T/C read as 97 % of control

Notebook: C1CCC2C(C1)C2(N1CCCC1)N1CCCC1 (stereo not given) , T/C read as 94 % of control
